# System name: dopamine-β-hydroxylase (DBH) (Homo sapiens, UniProt P09172)
# Protocol summary: in vitro DBH inhibition, conversion of tyramine to octopamine in the presence of DBH
# Assay type: biochemical
Quantity kind: pIC50
# pIC50: negative log10 of molar concentration; output just the value

Ask: Please supply the value of reported pIC50 for the item CCCCc1ccc(C(=O)O)nc1 [fusaric acid, reference compound]
Reply: 6.10

* * *

# System name: dopamine-β-hydroxylase (DBH) (Homo sapiens, UniProt P09172)
# Sequence (P09172 1-617): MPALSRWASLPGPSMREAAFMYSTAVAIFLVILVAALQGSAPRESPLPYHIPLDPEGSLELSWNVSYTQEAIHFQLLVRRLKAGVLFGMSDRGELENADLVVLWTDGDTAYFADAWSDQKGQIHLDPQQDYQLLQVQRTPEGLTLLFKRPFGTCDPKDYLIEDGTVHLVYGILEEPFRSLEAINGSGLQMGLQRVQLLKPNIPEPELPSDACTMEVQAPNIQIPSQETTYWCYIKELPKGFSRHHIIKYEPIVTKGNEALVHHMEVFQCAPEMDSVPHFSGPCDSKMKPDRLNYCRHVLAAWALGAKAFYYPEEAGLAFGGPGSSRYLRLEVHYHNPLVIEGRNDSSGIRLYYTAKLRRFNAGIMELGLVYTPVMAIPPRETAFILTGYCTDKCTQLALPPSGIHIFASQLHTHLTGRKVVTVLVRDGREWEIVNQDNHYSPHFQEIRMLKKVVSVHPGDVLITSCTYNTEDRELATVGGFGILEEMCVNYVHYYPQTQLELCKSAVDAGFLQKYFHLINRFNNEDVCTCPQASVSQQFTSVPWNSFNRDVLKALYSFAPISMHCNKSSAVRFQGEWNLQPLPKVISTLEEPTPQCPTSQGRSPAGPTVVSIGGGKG
# Protocol summary: in vitro DBH inhibition, conversion of tyramine to octopamine in the presence of DBH
# Type: biochemical
# Reported conditions: concentration of compound at which DBH activity was halved; tyramine to octopamine, absorbance at 330 nm; read-out: DBH IC50
Quantity kind: pIC50
Schema: pIC50 number; meaning minus log10 of the concentration expressed in molar units.

Ask: Identify pIC50 associated with the molecule Sc1nccn1Cc1ccoc1 [1-(3-furanylmethyl)imidazole-2-thiol]
Reply: 4.44

Ask: Read off the recorded pIC50 for Sc1nccn1Cc1ccco1 [1-(2-furanylmethyl)imidazole-2-thiol]
Reply: 4.25
